- Tested on: echinocloa crus-galli R.S.
- ASSAY PROTOCOL: herbicidal activity, soil treatment one day after sowing
- Assay type: in vivo
- CONDITIONS: 1 kg/ha
ENDPOINT: activity on D, 0-4 scale

Worked cases, answers included:
                                   compound                  endpoint  result
0  CCC(C)N(C(=O)c1cc(Cl)cc(Cl)c1)C(C)CC (centres unmarked) [PA234, 3,5-dichloro-N,N-di-sec.butyl-benzamide]  activity on D, 0-4 scale     2-3
1  CCC(C)N(C(=O)c1cc(Cl)ccc1Cl)C(C)CC (centres unmarked) [PA412, 2,5-dichloro-N,N-di-sec.butyl-benzamide]  activity on D, 0-4 scale     1-2
2  CCC(C)N(C(=O)c1ccc(Cl)c(Cl)c1Cl)C(C)CC (centres unmarked)  activity on D, 0-4 scale       2
3  CCCN(CCC)C(=O)c1cc(Cl)cc(Cl)c1Cl [PA303, reference compound]  activity on D, 0-4 scale     1-2

Now look at this one.
**Query** Report activity on D, 0-4 scale for CCC(C)N(C(=O)c1cc(Cl)cc(Cl)c1Cl)C(C)CC (centres unmarked) please.
**Result** 3
